Reference source for all entries: ChEMBL document CHEMBL2413062

- Test Details: Binding affinity to hair pin DNA ODN1 5'-XGCCAGCGCGGCTTTTGCCGCGCTGGC-3' (unknown origin) by surface plasmon resonance analysis
pKd: −log10 of the molar value.
Endpoint Label: pKd

A selection of reference data follows.
query: What pKd value was documented for this molecule, CN(C)CCCNC(=O)CCNC(=O)c1cc(NC(=O)c2nc(NC(=O)CCNC(=O)c3nc(NC(=O)CCCNC(=O)c4cc(NC(=O)c5nc(NC(=O)c6cc(NC(=O)c7nc(NC(=O)CCNC(=O)CCN)cn7C)cn6C)cn5C)cn4C)cn3C)cn2C)cn1C ?
result: 9.15

query: Record: CN(C)CCCNC(=O)CCNC(=O)c1cc(NC(=O)c2nc(NC(=O)c3cc(NC(=O)c4nc(NC(=O)CCCNC(=O)c5cc(NC(=O)c6nc(NC(=O)CCNC(=O)c7nc(NC(=O)CCNC(=O)CCN)cn7C)cn6C)cn5C)cn4C)cn3C)cn2C)cn1C
result: 9.36

A = CN(C)CCCNC(=O)CCNC(=O)c1cc(NC(=O)c2nc(NC(=O)CCNC(=O)c3nc(NC(=O)CCCNC(=O)c4cc(NC(=O)c5nc(NC(=O)CCNC(=O)c6nc(NC(=O)CCNC(=O)CCN)cn6C)cn5C)cn4C)cn3C)cn2C)cn1C
B = CN(C)CCCNC(=O)CCNC(=O)c1cc(NC(=O)c2nc(NC(=O)c3cc(NC(=O)c4nc(NC(=O)CCCNC(=O)c5cc(NC(=O)c6nc(NC(=O)c7cc(NC(=O)c8nc(NC(=O)CCNC(=O)CCN)cn8C)cn7C)cn6C)cn5C)cn4C)cn3C)cn2C)cn1C
query: Lab notebook, comparison: A versus B , higher pKd goes to which? Give the label under which the chosen entry appears.
result: A
